target: human CNT2 (Homo sapiens, UniProt O43868); test: Inhibitory activity against uptake of adenosine through human CNT2; conditions: human CNT2 transiently expressing cells, 14C-adenosine 10 μM, 30 minutes at 37° C., NBMPR 10 μM
Sequence (O43868 whole entry): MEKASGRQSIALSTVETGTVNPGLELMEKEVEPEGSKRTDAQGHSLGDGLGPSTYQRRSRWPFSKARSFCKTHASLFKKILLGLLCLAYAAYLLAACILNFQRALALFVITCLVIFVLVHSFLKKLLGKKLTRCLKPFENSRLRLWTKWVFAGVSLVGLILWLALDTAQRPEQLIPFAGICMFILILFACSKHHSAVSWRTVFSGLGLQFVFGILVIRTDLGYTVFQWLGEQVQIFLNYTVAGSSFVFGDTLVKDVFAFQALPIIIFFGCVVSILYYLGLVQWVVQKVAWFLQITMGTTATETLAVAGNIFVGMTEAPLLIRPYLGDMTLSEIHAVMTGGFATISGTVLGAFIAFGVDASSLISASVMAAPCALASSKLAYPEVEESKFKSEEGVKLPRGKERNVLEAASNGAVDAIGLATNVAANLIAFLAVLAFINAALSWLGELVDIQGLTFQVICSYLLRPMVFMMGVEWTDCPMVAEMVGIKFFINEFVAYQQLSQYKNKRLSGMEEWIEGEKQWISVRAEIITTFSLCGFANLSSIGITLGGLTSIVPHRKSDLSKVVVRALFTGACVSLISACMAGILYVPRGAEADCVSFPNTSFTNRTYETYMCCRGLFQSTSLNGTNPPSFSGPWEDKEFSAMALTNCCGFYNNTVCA
Experimental Readout: IC50

Solved cases (2 shown):
C[C@]1(O)C(n2c(NCc3ccc(-c4ccccc4)c(OCCCCO)c3)c(C#N)c3c(N)ncnc32)O[C@H](CO)[C@H]1O (stereo partly drawn) [Compound (8)] : 1 to 10 nM
C[C@@]1(O)[C@H](O)[C@@H](CO)O[C@H]1n1c(NCc2ccc(-c3ccccc3)cc2)c(C#N)c2c(N)ncnc21 [Compound (1)] : ≥ 100 nM

Please look at the following molecule next.
GET /values?readout=IC50&item= C[C@]1(O)C(n2c(NCc3ccc(-c4ccccc4)c(OCCCCN4CCCCC4)c3)c(C#N)c3c(N)ncnc32)O[C@H](CO)[C@H]1O (stereo partly drawn) [Compound (6)]
10 to 100 nM

====

target: human CNT2 (Homo sapiens, UniProt O43868); assay: Inhibitory activity against uptake of adenosine through human CNT2; settings: human CNT2 transiently expressing cells, 14C-adenosine 10 μM, 30 minutes at 37° C., NBMPR 10 μM
Experimental Readout: IC50

CC(C)(C)[Si](C)(C)OCCCCOc1cc(CNc2c(C#N)c3c(N)ncnc3n2C2O[C@H](CO)[C@@H](O)[C@@]2(C)O)ccc1-c1ccccc1 (stereo partly drawn) [Compound (5)] : ≥ 100 nM
C[C@]1(O)C(n2c(NCc3ccc(-c4ccccc4)c(OCCCCN4CCOCC4)c3)c(C#N)c3c(N)ncnc32)O[C@H](CO)[C@H]1O (stereo partly drawn) [Compound (4)] : 10 to 100 nM
C[C@]1(O)C(n2c(NCc3ccc(-c4ccccc4)c(OCCCCCl)c3)c(C#N)c3c(N)ncnc32)O[C@H](CO)[C@H]1O (stereo partly drawn) [Compound (3)] : 10 to 100 nM
CCOC(=O)CCCCOc1cc(CNc2c(C#N)c3c(O)ncnc3n2C2O[C@H](CO)[C@@H](O)[C@@]2(C)O)ccc1-c1ccccc1 (stereo partly drawn) [Compound (9)] : ≥ 100 nM
CCOC(=O)CCCCOc1cc(CNc2c(C#N)c3c(N)ncnc3n2C2O[C@H](CO)[C@@H](O)[C@@]2(C)O)ccc1-c1ccccc1 (stereo partly drawn) [Compound (2)] : 10 to 100 nM

# next molecule below
Fill in: IC50 of CN(C)C(=O)CCCCOc1cc(CNc2c(C#N)c3c(N)ncnc3n2C2O[C@H](CO)[C@@H](O)[C@@]2(C)O)ccc1-c1ccccc1 (stereo partly drawn) [Compound (7)] is ___
1 to 10 nM
